Test: chemical genetic growth profiling, strain panel (AID 1159580);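 note: tested at 20 µM; growth read once vehicle control cultures reached saturation at 30 °C; 1 = growth at the plate median or of vehicle wells; lower values mean less growth of the strain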
Settings: S. cerevisiae deletion strains, growth OD, locus YMR078C, strain ctf18, active compounds read low
Hit rate of the full screen: of about 5,500 compounds, about 2,000 (36%) were called active. About 18% were inconclusive and are not listed. This is one part of the list.
measured parameter: normalized growth

Guide cases for normalized growth, answers given:
{"columns": ["compound", "normalized growth"],
 "data": [
  ["CCCCOC(=O)c1ccc(N)cc1", "0.933 (inactive)"],
  ["Cc1ccc(Cl)c(Nc2ccccc2C(=O)O)c1Cl", "0.896 (active)"],
  ["CC(C)NCC(O)c1cc(O)cc(O)c1 (stereo not drawn)", "0.988 (inactive)"],
  ["CC(C)NC[C@H](O)COc1cccc2ccccc12", "1.03 (inactive)"],
  ["Nc1ccc(N=Nc2ccccc2)c(N)n1", "1.01 (inactive)"]
]}

Parameters: items (list). Returns: normalized growth for each item.
1. NC[C@@H]1CC[C@@H](N)[C@@H](O[C@H]2[C@H](O)[C@@H](O[C@H]3O[C@H](CO)[C@@H](O)[C@H](N)[C@H]3O)[C@H](N)C[C@@H]2N)O1
2. C#CCCCCCCCCCCCC(O)CC(O)COC(C)=O (stereo not drawn)
3. O=C(O)CN(CC(=O)O)Cc1cc2c(-c3ccccc3C(=O)O)c3cc(CN(CC(=O)O)CC(=O)O)c(=O)cc-3oc2cc1O
4. CC(=O)Oc1c(C)cccc1C(=O)O
5. CO[C@@]1(NC(=O)CSCC#N)C(=O)N2C(C(=O)O)=C(CSc3nnnn3C)CSC21 (stereo partly drawn)
6. CN1C(C(=O)Nc2ccccn2)=C(O)c2ccccc2S1(=O)=O

Result:
1 (inactive)
0.954 (inactive)
1.03 (inactive)
1.02 (inactive)
1.03 (inactive)
0.926 (inactive)

Parameters: items (list). Returns: normalized growth for each item.
1. CC[N+](CC)(CC)CCOc1cccc(OCC[N+](CC)(CC)CC)c1OCC[N+](CC)(CC)CC
2. CC(C(=O)O)c1ccc(C(=O)c2cccs2)cc1 (stereo not drawn)
3. Cc1c(Cl)cccc1Nc1ccccc1C(=O)O
4. CCC(C)c1cnc(CC(C)C)c(=O)n1O (stereo not drawn)
5. Cc1cccc(Nc2ccccc2C(=O)O)c1C
6. Oc1ccc2c(c1)OCC1c3cc4c(cc3OC21)OCO4 (stereo not drawn)

Result:
1: 1.02 (inactive); 2: 1.02 (inactive); 3: 0.761 (active); 4: 1.01 (inactive); 5: 0.838 (active); 6: 1 (inactive)

Parameters: items (list). Returns: normalized growth for each item.
1. O=S1OCC2C(CO1)C1(Cl)C(Cl)=C(Cl)C2(Cl)C1(Cl)Cl (stereo not drawn)
2. CCNC(=O)CC[C@H](N)C(=O)O
3. OC(Cn1cncn1)(Cn1cncn1)c1ccc(F)cc1F
4. Cc1cc(NC(=O)C2=C(O)c3ccccc3S(=O)(=O)N2C)no1
5. COc1ccc2c(c1O)OCC1c3cc4c(cc3OC21)OCO4 (stereo not drawn)
6. CCCCCCOc1ccccc1C(N)=O
7. COc1cc([C@@H]2c3cc4c(c(O)c3C[C@H]3COC(=O)[C@@H]32)OCO4)cc(OC)c1OC
8. OCc1ccccc1O

Result:
1. 0.977 (inactive)
2. 0.996 (inactive)
3. 0.992 (inactive)
4. 0.924 (inactive)
5. 0.988 (inactive)
6. 0.361 (active)
7. 0.995 (inactive)
8. 0.993 (inactive)

Parameters: items (list). Returns: normalized growth for each item.
1. NS(=O)(=O)c1cc2c(cc1Cl)NC(C(Cl)Cl)NS2(=O)=O (stereo not drawn)
2. COC(=O)C(O)c1ccccc1 (stereo not drawn)
3. O=C(O)c1cc2cc(Cc3cccnc3)ccc2o1
4. COc1ccc(CCN2CCC(Nc3nc4ccccc4n3Cc3ccc(F)cc3)CC2)cc1
5. CC1(C)C2CC(=O)[C@]3(C)C(CC[C@@]4(C)[C@H](c5ccoc5)OC(=O)[C@H]5O[C@]543)[C@@]2(C)C=C[C@@H]1O (stereo partly drawn)
6. NC(=O)c1cccc(N)c1

Result:
1: 1.02 (inactive); 2: 0.974 (inactive); 3: 0.995 (inactive); 4: 0.987 (inactive); 5: 0.998 (inactive); 6: 0.999 (inactive)

Parameters: items (list). Returns: normalized growth for each item.
1. COc1ccc2c(c1)CCC(c1ccccc1)=C2c1ccc(OCCN2CCCC2)cc1
2. CCCCN(CCCC)CCCOC(=O)c1ccc(N)cc1
3. CC(C)COCC(CN(Cc1ccccc1)c1ccccc1)N1CCCC1 (stereo not drawn)
4. C=C1C(C)C2C(Cc3ccccc3)NC(=O)C23OC(=O)/C=C/C(O)CCCC(C)C/C=C/C3C1O (stereo not drawn)
5. CCCCOC(=O)c1ccccc1C(=O)OCc1ccccc1
6. CCCCOC(=O)c1ccccc1C(=O)OCCCC

Result:
["0.979 (inactive)", "0.993 (inactive)", "0.986 (inactive)", "0.992 (inactive)", "0.957 (inactive)", "0.979 (inactive)"]

Parameters: items (list). Returns: normalized growth for each item.
1. CCN(CC)CCOC(=O)c1ccc(N)cc1
2. C#CCCCCCCCCCCCC(O)CC(O)CO (stereo not drawn)
3. C#CCCCCCCCCCCCC(=O)CC(O)COC(C)=O (stereo not drawn)

Result:
1: 0.992 (inactive); 2: 1 (inactive); 3: 0.961 (inactive)

Parameters: items (list). Returns: normalized growth for each item.
1. O=C(Cn1ccnc1[N+](=O)[O-])NCCO
2. CC(=O)OCC[C@H](C)CCC=C(C)C

Result:
1: 1.01 (inactive); 2: 1.04 (inactive)

Parameters: items (list). Returns: normalized growth for each item.
1. Nc1nc2ncc(=O)[nH]c2c(=O)[nH]1
2. NC(CO)C(=O)NNCc1ccc(O)c(O)c1O (stereo not drawn)
3. CCCCNc1ccc(C(=O)OCCN(C)C)cc1
4. CC1(C)O[C@H]2[C@H](O)C[C@](O)(C(N)=O)C[C@H]2O1

Result:
1. 0.979 (inactive)
2. 0.992 (inactive)
3. 1.02 (inactive)
4. 1.03 (inactive)

Parameters: items (list). Returns: normalized growth for each item.
1. COc1c2ccoc2c(OC)c2oc(=O)ccc12
2. C=CCCCCCCCCCCCC(O)CC(O)COC(C)=O (stereo not drawn) (tested in a mixture with another compound)

Result:
1: 0.969 (inactive); 2: 0.981 (inactive)
